assay: Selectivity index, ratio of CC50 for cytotoxicity against non-cancerous cells to EC50 for cytotoxicity against human HCT-116 cells; type: toxicity, cell-based; details: non-cancerous cells versus HCT-116 cells, read-out: Ratio CC50/EC50
# strict inequality: selectivity ratio < 3 yields yes (1), everything else yields no (0)

In: Is 3 strictly greater than the compound's reported selectivity ratio? compound: "O=C(/C=C/c1ccccc1)c1ccc(NC(=O)c2ccccc2)cc1"
Out: no (0)

In: Is 3 strictly greater than the compound's reported selectivity ratio? compound: "Nc1ccc(C(=O)/C=C/c2ccco2)cc1"
Out: no (0)

In: Is 3 strictly greater than the compound's reported selectivity ratio? compound: "O=C(/C=C/c1cccc([N+](=O)[O-])c1)c1ccc(NC(=O)c2ccco2)cc1"
Out: no (0)

In: Is 3 strictly greater than the compound's reported selectivity ratio? compound: "O=C(/C=C/c1ccco1)c1ccc(NC(=O)c2cccs2)cc1"
Out: yes (1)

In: Is 3 strictly greater than the compound's reported selectivity ratio? compound: "Nc1ccc(C(=O)/C=C/c2ccccc2)cc1"
Out: no (0)

In: Is 3 strictly greater than the compound's reported selectivity ratio? compound: O=C(/C=C/c1ccc(O)cc1)c1ccccc1 [4-HYDROXYCHALCONE]
Out: no (0)

In: Is 3 strictly greater than the compound's reported selectivity ratio? compound: "O=C(/C=C/c1ccco1)c1ccc(NC(=O)c2ccccc2)cc1"
Out: yes (1)

In: Is 3 strictly greater than the compound's reported selectivity ratio? compound: "COc1ccc(C(=O)/C=C/c2ccccc2)cc1"
Out: no (0)

In: Is 3 strictly greater than the compound's reported selectivity ratio? compound: "CC(=O)Nc1ccc(C(=O)/C=C/c2ccccc2)cc1"
Out: no (0)

In: Is 3 strictly greater than the compound's reported selectivity ratio? compound: "COc1ccc(/C=C/C(=O)c2ccccc2)cc1"
Out: no (0)

In: Is 3 strictly greater than the compound's reported selectivity ratio? compound: "CC(=O)Nc1ccc(C(=O)/C=C/c2ccco2)cc1"
Out: yes (1)

---

Exercise: state measured pIC50 for each of the compounds provided.
test: Inhibition of Escherichia coli GroEL expressed in NEB-5-alpha Escherichia coli cells/Escherichia coli GroES expressed in Escherichia coli BL21(DE3) cells assessed as inhibition of GroEL/ES-mediated dRho refolding by reporter analysis
// returns pIC50 (minus log10 of molar concentration), number only

In: Tell me its pIC50 given COc1ccc(/C=C/C(=O)c2ccccc2)cc1 [4-METHOXY CHALCONE] as the entry.
Out: 4.34

In: Tell me its pIC50 given "O=C(/C=C/c1ccco1)c1ccc(NC(=O)c2cccs2)cc1" as the entry.
Out: 5.01

In: Tell me its pIC50 given "O=C(/C=C/c1ccccc1)c1ccc(NC(=O)c2cccs2)cc1" as the entry.
Out: 4.70

In: Tell me its pIC50 given "CC(=O)Nc1ccc(C(=O)/C=C/c2ccccc2)cc1" as the entry.
Out: 4.40

---

assay: Selectivity index, ratio of CC50 for cytotoxicity against non-cancerous cells to EC50 for cytotoxicity against human HCT-116 cells; type: toxicity, cell-based; conditions: non-cancerous cells versus HCT-116 cells, read-out: Ratio CC50/EC50
Exercise: state measured selectivity ratio for each of the compounds provided.
Hey, just send me the number, nothing else.

In: Tell me its selectivity ratio given "O=C(/C=C/c1cccc([N+](=O)[O-])c1)c1ccc(NC(=O)c2ccccc2)cc1" as the entry.
Out: 24

In: Tell me its selectivity ratio given "O=C(/C=C/c1ccccc1)c1ccccc1" as the entry.
Out: 6.2

In: Tell me its selectivity ratio given "CC(=O)Nc1ccc(C(=O)/C=C/c2cccc([N+](=O)[O-])c2)cc1" as the entry.
Out: 7.9

In: Tell me its selectivity ratio given O=C(/C=C/c1ccccc1)c1ccc(O)cc1 [4'-HYDROXYCHALCONE] as the entry.
Out: 3.7

In: Tell me its selectivity ratio given "O=C(/C=C/c1cccc([N+](=O)[O-])c1)c1ccc(NC(=O)c2cccs2)cc1" as the entry.
Out: 19

In: Tell me its selectivity ratio given "O=C(/C=C/c1ccccc1)c1ccc(NC(=O)c2cccs2)cc1" as the entry.
Out: 4.9

In: Tell me its selectivity ratio given "O=C(/C=C/c1ccc([N+](=O)[O-])cc1)c1ccc(O)c(O)c1" as the entry.
Out: 3.4

---

Exercise: state measured CC50 at 48 h for each of the molecules provided.
assay: Cytotoxicity against human FHC cells assessed as reduction in cell viability incubated for 48 hrs by AlamarBlue-based assay; type: toxicity
Respond numerically; units are µM and should not be typed.

In: Tell me its CC50 at 48 h given "COc1ccc(/C=C/C(=O)c2ccccc2)cc1" as the entry.
Out: 99

In: Tell me its CC50 at 48 h given "O=C(/C=C/c1ccccc1)c1ccc(NC(=O)c2cccs2)cc1" as the entry.
Out: 83

In: Tell me its CC50 at 48 h given "O=C(/C=C/c1ccc([N+](=O)[O-])cc1)c1ccc(O)c(O)c1" as the entry.
Out: 28

In: Tell me its CC50 at 48 h given "O=C(/C=C/c1cccc([N+](=O)[O-])c1)c1ccc(NC(=O)c2cccs2)cc1" as the entry.
Out: 73

---

assay: Inhibition of human mitochondrial HSP60 expressed in Escherichia coli Rosetta 2 (DE3) cells/human mitochondrial HSP10 expressed in Escherichia coli Rosetta 2 (DE3) pLysS cells assessed as inhibition of […]-mediated dMDH refolding by reporter analysis; assay type: mitochondria, Mitochondria
Exercise: state measured IC50 for each of the compounds provided.
Respond numerically; units are µM and should not be typed.

In: Tell me its IC50 given "Nc1ccc(C(=O)/C=C/c2ccco2)cc1" as the entry.
Out: 9.8

In: Tell me its IC50 given "O=C(/C=C/c1ccccc1)c1ccc(NC(=O)c2cccs2)cc1" as the entry.
Out: 4.7

In: Tell me its IC50 given "CC(=O)Nc1ccc(C(=O)/C=C/c2ccco2)cc1" as the entry.
Out: 44

In: Tell me its IC50 given "O=C(/C=C/c1ccco1)c1ccc(NC(=O)c2ccccc2)cc1" as the entry.
Out: 20

In: Tell me its IC50 given O=C(/C=C/c1ccc(O)cc1)c1ccccc1 [4-HYDROXYCHALCONE] as the entry.
Out: 21

In: Tell me its IC50 given "O=C(/C=C/c1cccc([N+](=O)[O-])c1)c1ccc(NC(=O)c2ccccc2)cc1" as the entry.
Out: 2.3

---

assay: Cytotoxicity against human FHC cells assessed as reduction in cell viability incubated for 48 hrs by AlamarBlue-based assay; format: toxicity
Exercise: state measured CC50 at 48 h for each of the molecules provided.
Respond numerically; units are µM and should not be typed.

In: Tell me its CC50 at 48 h given "O=C(/C=C/c1ccco1)c1ccc(NC(=O)c2cccs2)cc1" as the entry.
Out: 93

In: Tell me its CC50 at 48 h given O=C(/C=C/c1ccccc1)c1ccc(O)cc1 [4'-HYDROXYCHALCONE] as the entry.
Out: 82

In: Tell me its CC50 at 48 h given O=C(/C=C/c1ccccc1)c1ccccc1 [CHALCONE] as the entry.
Out: 71

In: Tell me its CC50 at 48 h given "CC(=O)Nc1ccc(C(=O)/C=C/c2ccccc2)cc1" as the entry.
Out: 86

In: Tell me its CC50 at 48 h given "CC(=O)Nc1ccc(C(=O)/C=C/c2cccc([N+](=O)[O-])c2)cc1" as the entry.
Out: 15

In: Tell me its CC50 at 48 h given "Nc1ccc(C(=O)/C=C/c2ccco2)cc1" as the entry.
Out: 90

---

assay: Inhibition of human mitochondrial HSP60 expressed in Escherichia coli Rosetta 2 (DE3) cells/human mitochondrial HSP10 expressed in Escherichia coli Rosetta 2 (DE3) pLysS cells assessed as inhibition of […]-mediated dMDH refolding by reporter analysis; type: mitochondria, Mitochondria
pIC50: −log10 of the molar value.
Note to self: values exactly at 5 are true (1). So pIC50 at or above 5 is true (1), below is false (0).

In: Hello, I need to know if "O=C(/C=C/c1ccc([N+](=O)[O-])cc1)c1ccc(O)c(O)c1" has measured pIC50 not below 5. Thanks!
Out: true (1)

In: Hello, I need to know if OC(/C=C/c1ccccc1)c1ccccc1 (stereo unspecified) has measured pIC50 not below 5. Thanks!
Out: false (0)

In: Hello, I need to know if O=C(/C=C/c1ccccc1)c1ccc(O)cc1 [4'-HYDROXYCHALCONE] has measured pIC50 not below 5. Thanks!
Out: false (0)

In: Hello, I need to know if "O=C(/C=C/c1cccc([N+](=O)[O-])c1)c1ccc(NC(=O)c2cccs2)cc1" has measured pIC50 not below 5. Thanks!
Out: true (1)

In: Hello, I need to know if "COc1ccc(/C=C/C(=O)c2ccccc2)cc1" has measured pIC50 not below 5. Thanks!
Out: false (0)

In: Hello, I need to know if "O=C(CCc1ccccc1)c1ccccc1" has measured pIC50 not below 5. Thanks!
Out: false (0)

In: Hello, I need to know if "O=C(NCc1ccccc1)c1ccccc1" has measured pIC50 not below 5. Thanks!
Out: false (0)

In: Hello, I need to know if "Nc1ccc(C(=O)/C=C/c2ccccc2)cc1" has measured pIC50 not below 5. Thanks!
Out: false (0)

Origin of values: ChEMBL document CHEMBL5150040
